Kindly supply the reported Cmax values for the records listed here.
assay: pharmacokinetics in male Sprague-Dawley rats after oral gavage; type: in vivo; settings: rat; PO 50 mg/kg, male Sprague-Dawley rats, plasma, average N=3, 70/30 Saline/PEG400
Structures can show the parent of a compound that is named as a salt.
Expressed in ng/mL, but write only the number.

q: Retrieve Cmax measured for CCNC1=Nc2ccc(Cl)cc2C(C)(c2ccccc2)O1 (centres unmarked) [Etifoxine hydrochloride, reference compound] and print it.
a: 1140

q: # return recorded Cmax for entry [2H]C([2H])([2H])C([2H])([2H])NC1=Nc2ccc(Cl)cc2C(C)(c2ccccc2)O1 (centres unmarked) [Example 1 hydrochloride]
a: 1930

###

For each record, write down the corresponding half-life at 0.1 μM.
assay: liver human microsomes stability study; format: in vitro ADME; details: human, liver microsomes, human liver microsomes, 0.1 μM compound, 0.1 mg/mL microsomal protein, up to 60 minutes; read-out: Half-life (minutes) Experiment 1
Respond numerically; units are min and should not be typed.

q: # return recorded half-life at 0.1 μM for input [2H]C([2H])([2H])C([2H])([2H])NC1=Nc2ccc(Cl)cc2C(C)(c2ccccc2)O1 (centres unmarked)
a: 39.7

q: State, in one line, measured half-life at 0.1 μM of CCNC1=Nc2ccc(Cl)cc2C(C)(c2ccccc2)O1 (centres unmarked)
a: 23

###

experiment: rat liver microsomes stability study; assay type: in vitro ADME; settings: rat, liver microsomes, average of experiments 1 and 2, read-out: Half-life (minutes) Average
measured_quantity: half-life at 0.1 μM (min)
Could you give me the number in min? Just the number is fine.

q: Input [2H]C([2H])([2H])C([2H])([2H])NC1=Nc2ccc(Cl)cc2C(C)(c2ccccc2)O1 (stereo not shown) [Example 1] , output reported half-life at 0.1 μM.
a: 14

###

assay: rat liver microsomes stability study; format: in vitro ADME; settings: rat, liver microsomes, 0.1 μM compound, 0.1 mg/mL microsomal protein, up to 60 minutes, read-out: Half-life (minutes) Experiment 2
Provide the reported half-life at 0.1 μM of each item.
Value expressed in min; do not type the unit.

q: Answer with the recorded half-life at 0.1 μM for the molecule listed here: [2H]C([2H])([2H])C([2H])([2H])NC1=Nc2ccc(Cl)cc2C(C)(c2ccccc2)O1 (centres unmarked)
a: 13.8

q: Please give the documented half-life at 0.1 μM of CCNC1=Nc2ccc(Cl)cc2C(C)(c2ccccc2)O1 (centres unmarked)
a: 7.4
